Test: MTT cytotoxicity assay
Assay type: cell-based, Human
Conditions: human, HEK293 cells
A collection of compounds and their measured CC50 at 24 h

Below, each entry is followed by its recorded CC50 at 24 h result.
Compound: COc1nc2ccc(Br)cc2cc1[C@@H](c1ccccc1)[C@@](O)(CCN(C)C)c1cccc2ccccc12 [Bedaquiline]
Result value: > 400 µM
--
Compound: C[C@@H]1CC[C@H]2[C@@H](C)C(=O)O[C@@H]3O[C@@]4(C)CC[C@@H]1[C@]32OO4 [Artemisinin]
Result value: > 100 µM
--
Compound: NC(N)=Nc1ccc(-c2ccc(-c3ccc(N=C(N)N)c(Cl)c3)o2)cc1Cl [MMV688271]
Result value: 119 µM

Look at this compound and give its reported CC50 at 24 h. Oc1cccc(C(Nc2nccs2)c2ccc3cccnc3c2O)c1 (stereo not shown) [MMV642550]
> 200 µM

Look at this compound and give its reported CC50 at 24 h. N=C(N)NCCCCC(=O)Nc1cc(C(F)(F)F)cc(NC(=O)c2cc(C(=O)Nc3cc(C(F)(F)F)cc(NC(=O)CCCCNC(=N)N)c3O[C@@H]3CCNC3)ncn2)c1O[C@@H]1CCNC1 [Brilacidin]
> 200 µM

Look at this compound and give its reported CC50 at 24 h. CC(C)(C)NC(=O)[C@@H]1CN(Cc2cnc3occc3c2)CCN1C[C@@H](O)C[C@@H](Cc1ccccc1)C(=O)N[C@H]1c2ccccc2C[C@H]1O [MMV1782353]
> 200 µM

Look at this compound and give its reported CC50 at 24 h. CCN(CC)CCCC(C)Nc1ccnc2cc(Cl)ccc12 (stereo not shown) [Chloroquine]
45.7 µM
